# System: HOP-62 NSCLC
# assay-summary: NCI tumour cell line growth inhibition, 48 h
The entries below come with measured TGI values attached.
measurement-label: TGI

molecule | result
O=C(NNc1ccccc1)c1ccc(Cl)c(Cl)c1 | > 100 µM
[Cl][Hg][c]1ccc2ccccc2c1 | 11.8 µM
CC(=O)c1c2c(cc3c1CC1(Cc4cc5c(cc4C1)C(=O)CCC5)C3)CCCC2 (configuration not stated) | 43.4 µM
C[C@@]1(C(=O)O)CCC[C@]2(C)C1CC[C@]13C[C@@](O)(CO)[C@](O)(CC[C@]12O)C3 (some centres not stated) | > 100 µM
CCCCCCCCCC(=O)NC(CCC(=O)N(CCNC(=O)c1nc(-c2ccccc2)oc1-c1ccccc1)Cc1ccccc1)C(=O)O (configuration not stated) | 30.5 µM
C1=Nc2ccc(cc2)-c2ccc(cc2)N=Cc2ccc(cc2)OCc2cccc(n2)COc2ccc1cc2 | > 100 µM
CC(C)N1C(C)[C@@H](c2ccccc2)O[P@@]1(=O)CC1=CCCCC1 (some centres not stated) | > 100 µM
CC(=O)O[C@@H]1C2=C(C)C3(CC3)[C@@](C)(O)C(=O)C2=C[C@@]1(C)CO | 4.52 µM
C[C@@H](CS[As](C)C)C(=O)N1CCC[C@H]1C(=O)O | 5.11 µM
COc1cccc(/C=C2\SC(=S)N(/C=C3\C(=O)Oc4ccccc4C3=O)C2=O)c1O | > 100 µM
c1cc(C2CCCCC2)ccc1-c1cnc2nonc2n1 | 5.98 µM
CNC(=O)CCCNC(=O)CCCCC(=O)N(C)C | > 100 µM
CC1(C)OC[C@H](COCOP2(=O)Oc3ccc4ccccc4c3-c3c(ccc4ccccc34)O2)O1 | 40 µM
COC(=O)[C@@H](NC(=O)[C@H](N)Cc1ccc(N(CCCl)CCCl)cc1)C(C)C | > 100 µM
CC(=O)O[C@H]1CC[C@H]2[C@@H]3CCC4=C/C(=N/OCCN(C)C)CC[C@]4(C)[C@H]3CC[C@]12C | 27.5 µM
CC(C)(C)C1=CC(=C2C=Cc3cc(O)ccc3O2)C=C(C(C)(C)C)C1=O | 4.02 µM
COc1ccc(C2Oc3c(cccc3-c3c(-c4ccc(O)cc4)oc4cc(O)cc(O)c4c3=O)C(=O)C2O)cc1O (configuration not stated) | > 100 µM
O=C1NC2(CCCCC2)C2CCCCC=C12 (configuration not stated) | > 100 µM
Nn1c(-c2cccc(Cl)c2)nc2ccccc2c1=O | > 100 µM
COc1ccc2nc3n(c2c1)C(c1c(F)cccc1F)SC3 (configuration not stated) | > 100 µM
CCOC(=O)N/N=C(\CC)NO | > 100 µM
CC(=O)CCc1ccc(Oc2c3c(nc4ccccc24)OCC3)cc1 | > 100 µM
CSCC(CO)NC(=O)/C=C/c1c(C)[nH]c(=O)[nH]c1=O (configuration not stated) | > 875 µM
Cc1nc2sc(C(=O)Nc3ccccc3)c(N)c2cc1C(O)c1ccccc1 (configuration not stated) | > 53.8 µM
Cc1ccc(Nc2nc(=O)c3c([nH]c4ccccc43)s2)cc1 | 21.8 µM
COC(=O)c1sc2c(c1C(=O)OC)C(=NC(C)(C)C)SC2=NC(C)(C)C | 39 µM
COc1ccc(CCc2ccc3c(c2)OCO3)cc1 | > 100 µM
COc1ccc(/C=N/N=C(\N)NO)cc1F | 72.5 µM
CC(C)(C)[Si](C)(C)OCCc1ccccc1C1CC2(S(=O)(=O)c3ccccc3)ON1CC2S(=O)(=O)c1ccccc1 (configuration not stated) | > 100 µM
COC(=O)C12C34C=CC5(CCC6(C=CC1(CC3)O6)C52C(=O)OC)O4 (configuration not stated) | > 100 µM
CCC[CH2][Sn]([CH2]CCC)([O]C(=O)c1cc(F)ccc1F)[O]C(=O)c1cc(F)ccc1F | 4.04 µM
COc1ccc2c(C)cc(N/N=C/c3ccc(C)s3)nc2c1 | 56.9 µM
CCCCCCCCCCCCCCCCCCOCC(C[N+]1(C)CCC(O)CC1)OCC (configuration not stated) | 16.7 µM
COC1(OC)N=C(N)C2(C#N)C(C)=C3NCN(C)N=C3C12C#N (configuration not stated) | > 100 µM
COc1cc([C@@H]2OC(=O)C3C2C(=O)O[C@H]3c2ccc(O)c(OC)c2)ccc1O (some centres not stated) | > 100 µM
COc1cccc(N2CCN(c3ncnc4cc[nH]c34)CC2)c1 | > 100 µM
C=CCC(N[C@H](CO)c1ccccc1)c1ccccn1 (some centres not stated) | > 100 µM

* * *

# Tested on: SF-295 CNS
# assay-summary: NCI tumour cell line growth inhibition, 48 h; in the data active means GI50 below about 0.43 µM; inactive means the rest
Possible outcomes: active, inactive

compound | test-system | class-name
Cc1nc2sc(C(=O)Nc3ccccc3)c(N)c2cc1C(O)c1ccccc1 (stereo not drawn) | SF-295 CNS | active
O=C(N/N=C/c1cc(Cl)ccc1O)c1ccccc1Nc1ccnc(C(F)(F)F)c1 | SF-295 CNS | inactive
CC(=O)O[C@@H]1C2=C(C)C3(CC3)[C@@](C)(O)C(=O)C2=C[C@@]1(C)CO | SF-295 CNS | active

* * *

# Tested on: MDA-MB-435
# assay-summary: NCI tumour cell line growth inhibition, 48 h

molecule | test-system | TGI
O=C(NCc1ccco1)C1CCN(S(=O)(=O)c2ccc(Cl)cc2)CC1 | MDA-MB-435 | > 100 µM
CC1=NN(C(=O)CC(=O)NC(=O)/C=C\c2ccccc2)C(=O)C1N=Nc1ccc([N+](=O)[O-])cc1 (centres undefined) | MDA-MB-435 | > 100 µM
Nc1nc(Cl)c(N)c(NCC2(CO)CCC(CCc3ccccc3)C2)n1 (centres undefined) | MDA-MB-435 | 27 µM
COc1cc2c(c(OC)c1OC)C(=O)[C@@H](O)[C@H]2NC(N)=O | MDA-MB-435 | > 100 µM
C[C@H](c1ccccc1)n1c(N)c(-c2nc3ccccc3s2)c2ccc([N+](=O)[O-])cc2c1=O | MDA-MB-435 | > 79.7 µM
COCCNCc1ccc(-c2cc3nccc(Oc4ccc(NC(=O)C5(C(=O)Nc6ccc(F)cc6)CC5)cc4F)c3s2)nc1 | MDA-MB-435 | 2.68 µM
COc1cccc(N2CCN(c3ncnc4cc[nH]c34)CC2)c1 | MDA-MB-435 | 19 µM
O=C1C(Cl)=C(Nc2cc(Cl)ccc2O)C(=O)N1Cc1ccccc1 | MDA-MB-435 | 34.9 µM
COc1ccc(/C=C2\CCC(C)c3c2nc(N)c(C#N)c3-c2ccc(OC)c(OC)c2)cc1OC (centres undefined) | MDA-MB-435 | > 100 µM
COc1ccc2nc3n(c2c1)C(c1c(F)cccc1F)SC3 (centres undefined) | MDA-MB-435 | > 100 µM
COc1ccc(-c2c(-c3ccccc3)c(C)nc3[nH]c(=S)[nH]c(=S)c23)cc1OC | MDA-MB-435 | 74.1 µM
Cc1c(NC(=O)CSC(=S)N(C)C)c(=O)n(-c2ccccc2)n1C | MDA-MB-435 | > 100 µM
Cc1cc(N(CCC#N)CCC#N)ccc1/C=C(\NC(=O)/C=C/c1ccccc1)C(=O)Nc1ccc(Cl)cc1 | MDA-MB-435 | > 100 µM
COc1cc(C2c3cc4c(cc3[C@@H](Nc3ccc([N+](=O)[O-])cc3)C3COC(=O)[C@H]23)OCO4)cc(OC)c1O (some centres undefined) | MDA-MB-435 | > 100 µM

* * *

# Test system: MALME-3M melanoma
# assay-summary: NCI tumour cell line growth inhibition, 48 h

compound | TGI
CN(CCCN1C(=O)c2cccc3cc([N+](=O)[O-])cc(c23)C1=O)CCN(C)CCCN1C(=O)c2cccc3cc([N+](=O)[O-])cc(c23)C1=O | > 39.3 µM
O=c1[nH]nc(-c2ccccc2)n1-c1cccc([N+](=O)[O-])c1 | > 100 µM
CCOC(=O)N/N=C(\CC)NO | > 100 µM
CN(/N=C/C=N/N(C)C1=NCCCN1)C1=NCCCN1 | > 100 µM
CCCCCN(CCCCC)C(=O)[C@H](CCC(=O)O)NC(=O)c1cc2ccccc2[nH]1 | > 100 µM
CSC1(C(=O)O)C2CCC3C2CCC31 (stereo unspecified) | > 100 µM

* * *

# System: SF-268 CNS
# assay-summary: NCI tumour cell line growth inhibition, 48 h
The entries below come with measured TGI values attached.
measurement-label: TGI

compound | result
COC(=O)C(=O)C(C(C)=O)C(=O)NCc1ccccc1 (stereo unspecified) | > 100 µM
COc1ccc2nc3n(c2c1)C(c1c(F)cccc1F)SC3 (stereo unspecified) | > 100 µM
Cc1ccc(C2[C@H]3C(=O)N(c4ccc(Cc5ccc(N6C(=O)[C@@H]7ON(c8ccccc8)C(c8ccc(C)cc8)[C@@H]7C6=O)cc5)cc4)C(=O)[C@H]3ON2c2ccccc2)cc1 (stereo partly specified) | > 100 µM
COc1cc([C@@H]2OC(=O)C3C2C(=O)O[C@H]3c2ccc(O)c(OC)c2)ccc1O (stereo partly specified) | > 100 µM
CCOC(=O)C1=C(O)C(=O)c2ccoc2C1=O | > 100 µM
Cn1cc(C2=C(c3cc[nH]c3)C(=O)NC2=O)c2ccccc21 | > 25 µM
